All values here come from patent US20070203134A1.

IC50 reference
# Target System: human GSK3 beta (Homo sapiens)
# Sequence (P49841 whole entry): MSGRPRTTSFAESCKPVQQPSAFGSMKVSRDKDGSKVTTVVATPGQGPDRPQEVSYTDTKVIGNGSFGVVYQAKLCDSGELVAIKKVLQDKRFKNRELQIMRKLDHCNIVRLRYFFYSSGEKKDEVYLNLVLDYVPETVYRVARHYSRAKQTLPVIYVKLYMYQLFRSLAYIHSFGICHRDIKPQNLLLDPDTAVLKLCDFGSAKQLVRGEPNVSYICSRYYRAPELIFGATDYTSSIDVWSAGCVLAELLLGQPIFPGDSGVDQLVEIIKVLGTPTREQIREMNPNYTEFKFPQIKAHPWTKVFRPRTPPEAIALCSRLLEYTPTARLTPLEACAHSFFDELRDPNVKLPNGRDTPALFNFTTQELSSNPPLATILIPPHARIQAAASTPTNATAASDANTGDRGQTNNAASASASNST
# Procedure Text: GSK3β in vitro kinase assay (33P-ATP phosphorylation of phospho GS2 peptide)
# Type: biochemical
# Condition Description: in vitro potency, read-out: IC50 (μM) GSK3beta

Compound: CCN1/C(=C(\C#N)c2nc(NC(=O)Cc3ccccc3OC)ncc2C)Nc2ccccc21
Target System: human GSK3 beta (Homo sapiens)
Observed: < 10 µM

Next:
Input CCN1/C(=C(\C#N)c2nc(NC(=O)C3CN(C(=O)OC(C)(C)C)CCO3)ncc2C)Nc2ccccc21 (stereo not shown) . Output IC50: < 10 µM
